Test system: breast MDA-MB-435
ASSAY_SUMMARY: COMPARE screening (NCI human cancer cell line screen), cytotoxicity GI50
Type: cell-based
PROPERTY: GI50 (nM)
Unit nM implied. Number only.

O=C(O)C(F)(F)F.O=C1c2ccccc2-c2c1c1ccccc1c(=O)n2CCCNCCn1c2c(c3ccccc3c1=O)C(=O)c1ccccc1-2 [Compound 14a]; 2240
COc1ccc2c(c1)C(=O)c1c-2n(CCCCl)c(=O)c2cc([N+](=O)[O-])ccc12; 3240
O=C1c2ccccc2-c2c1c1ccc([N+](=O)[O-])cc1c(=O)n2CCCN1CCOCC1; 1230

Continue with the next compound.
Ask | GET /values?readout=GI50&item= CN(C)CCCn1c2c(c3ccccc3c1=O)C(=O)c1ccccc1-2
Reply | 2820
